Experimental details: inhibition of 3D7 malaria parasite growth – strain 3D7 (AID 2306);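 note: 0% = DMSO wells and 100% = chloroquine plus artemisinin control wells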
Condition notes: P. falciparum 3D7 erythrocytic growth, LDH absorbance, 72 h; at 2 µM; stronger effect = higher value
Would you kindly list growth inhibition for each of these molecules?
Answer format: numeric, % implied, no suffix.

Prompt line: Fill in growth inhibition for record COc1ccc(CNC(=O)Nc2cccc(-c3csc(N=C(N)N)n3)c2)cc1
Response line: 80

Prompt line: Report growth inhibition, nothing else, for this molecule: N#Cc1ccc2c(c1)CN(CCC1CCC(NC(=O)c3cc4cc(OC(F)(F)F)ccc4[nH]3)CC1)CC2 (stereo unspecified)
Response line: 101

Prompt line: Identify the reported growth inhibition for the following entry. Cc1[nH]c(C)c(-c2ccc(Oc3ccc(C(F)(F)F)cc3)cc2)c(=O)c1Br
Response line: 97

Prompt line: Give growth inhibition for CCn1c(-c2nonc2N)nc2c(-c3cccc(NC(=O)Nc4ccc(Cl)cc4)c3)ncc(OCCCN)c21
Response line: 96

Prompt line: Give the reported growth inhibition for this molecule. CCc1cn2c3c(cc(C(=O)N[C@@H](Cc4ccccc4)[C@H](O)CNCc4ccccc4C)cc13)N(C)S(=O)(=O)CC2
Response line: 98

Prompt line: Return growth inhibition (reported value) for this molecule: CCCCOc1c(CCNCCCCNCCc2cc(OC)c3ccccc3c2OCCCC)cc(OC)c2ccccc12
Response line: 91

Prompt line: Please list growth inhibition recorded for the molecule CCCCCOc1c(CCC)cc(Cc2cnc(N)nc2N)cc1CCC
Response line: 94

Prompt line: Fill in growth inhibition for record NS(=O)(=O)c1cccc(Nc2nccc(-c3c(-c4cccc(NC(=O)c5c(F)cccc5F)c4)nn4ccccc34)n2)c1
Response line: 98

Prompt line: Please list growth inhibition recorded for the molecule CCN(CC)C(=NCCCCCCN=C(/N=C(/N)Nc1ccc(Br)cc1)N(CC)CC)/N=C(/N)Nc1ccc(Br)cc1
Response line: 96

Prompt line: Return growth inhibition (reported value) for this molecule: CC(C)c1ccc(C(NC(=O)C2CCCCC2)c2ccc3cccnc3c2O)cc1 (stereo unspecified)
Response line: 89

Prompt line: Entry COc1ccc2nccc(NC(=O)N3CCC(NCCOc4cc(F)cc(F)c4)CC3)c2n1 needs its growth inhibition filled in; supply it.
Response line: 86

Prompt line: Find the measured growth inhibition of CN(C)Cc1ccc(CNC2CCN(Cc3ccccc3Cl)CC2)cc1 and report it.
Response line: 82

Prompt line: Quick one: give measured growth inhibition for NC(=O)c1ccsc1NC(=O)CNC(c1ccccc1)c1ccc(Cl)cc1 (stereo unspecified)
Response line: 83

Prompt line: Please list growth inhibition recorded for the molecule COc1ccc(-c2ccc(NC(=O)c3ccc(C#N)cc3)cc2)cc1CN1CCCC1
Response line: 95

Prompt line: Respond only with growth inhibition recorded for Cn1c(Nc2cc(C(C)(C)C)on2)nc2cc(Nc3ccnc(Nc4cccc(CS(C)(=O)=O)c4)n3)ccc21
Response line: 99

Prompt line: Respond only with growth inhibition recorded for CN1CCN(Cc2cccc(-c3ccc4c(Nc5cc(O)c(Cl)cc5F)ccnc4c3)c2)CC1
Response line: 102

Prompt line: Assign growth inhibition to the following record: CC(C)(CNCc1ccc(Cl)cc1)c1nc(-c2ccc(Cl)c(O)c2)c(-c2ccncc2)[nH]1
Response line: 101

Prompt line: Please supply the value of reported growth inhibition for the item CCc1cccc(-c2cc(=N)n(C)c3nc(N)[nH]c(=O)c23)c1
Response line: 85

Prompt line: Provide only the value of recorded growth inhibition for CCn1c(-c2nonc2N)nc2c(-c3cc4ccccc4s3)ncc(C(=O)N3CCC(N)C3)c21 (stereo unspecified)
Response line: 98

Prompt line: Please report growth inhibition for the following molecule: CS(=O)(=O)c1cccc(-c2cnc3[nH]cc(-c4cccc(CCN)c4)c3c2)c1
Response line: 99

Prompt line: Identify measured growth inhibition corresponding to CN(C)Cc1cccc(-c2ccc(NC(=O)c3ccc4c(=O)n(Cc5cnn(C)c5)cnc4c3)cc2)c1
Response line: 80

Prompt line: Provide one value: measured growth inhibition of CCOc1ccccc1C(=O)Nc1cccc(-c2nc3ncccn3c2C)c1
Response line: 92

Prompt line: Please give the documented growth inhibition of Cc1cc(N[C@@H](Cc2ccccc2)C(=O)Nc2ccccc2)nc(NCC2CCCCC2)n1
Response line: 98

Prompt line: Give growth inhibition for the following molecule: O=C(NCCCCN1CCC(c2ccc3c(c2OCCOCCO)CCCC3)CC1)c1ccc(-c2ccc(C(F)(F)F)cc2)cc1
Response line: 97

Prompt line: # return recorded growth inhibition for entry CCc1cn(C)c2c(N3CCCC3=O)cc(C(=O)N[C@@H](Cc3ccccc3)[C@H](O)CNC(C)(C)c3cccc(OC)c3)cc12
Response line: 95

Prompt line: Given the molecule O=C(N[C@H]1CCN(Cc2ccc(OCCN3CCNCC3)c(Cl)c2)C1)c1ccc(Cl)c(Cl)c1 , write its reported growth inhibition.
Response line: 101
